Every entry's value here was drawn from patent US8633243B2.

- Test system: NCI-60 tumor cell line panel
- Format: cell-based
- test settings: average over panel
pIC50: −log10 of the molar value.
measured quantity: pIC50

stdin: Field request: pIC50 | item: `COC(=O)[C@]12CCC(C)(C)C[C@H]1[C@H]1C(=O)C=C3[C@@]4(C)C=C(C#N)C(=O)C(C)(C)[C@@H]4CC[C@@]3(C)[C@]1(C)CC2`
stdout: ~7.46

* * *

- test: Approximate solubility, solvent addition method
- Format: physicochemical
- test settings: isopropanol/water (10:1), organic solvent or mixture, thermodynamic from solid; (10:1) Isopropanol/water, room temperature
measured quantity: solubility (µg/mL)
Just the number please, in µg/mL, no unit attached.

stdin: Consider the compound `COC(=O)[C@]12CCC(C)(C)C[C@H]1[C@H]1C(=O)C=C3[C@@]4(C)C=C(C#N)C(=O)C(C)(C)[C@@H]4CC[C@@]3(C)[C@]1(C)CC2` and give its measured solubility.
stdout: 4000
